B1: glmS ribozyme (parent)
chain: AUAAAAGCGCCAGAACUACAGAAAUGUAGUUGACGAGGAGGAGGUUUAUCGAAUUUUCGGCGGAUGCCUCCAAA

- Variants of: B1
- Protocol: kcat; higher = faster cleavage; RNA array
- Conditions used: with glucosamine-6-phosphate
This sample holds only a part of the variants without activity.
Measured kcat accompanies every entry in the list below.
Property name: kcat

>>> recorded_value("A64G C68A")
"< 1e-05 s⁻¹"
>>> recorded_value("G44U U57G")
"< 1e-05 s⁻¹"
>>> recorded_value("C50A G59A")
"< 1e-05 s⁻¹"
